# Tested on: T-47D Tam1
# protocol.summary: viability inhibition at highest dose (% inhibition); higher = more growth inhibition
# condition.info: 4-OH-tamoxifen in medium 1 µM; 72 h
Where a name gives a salt, the structure may show the parent alone.
Entries and their viability inhibition at highest dose values follow.

{"compound": "CN1CCN(CCOc2cc(OC3CCOCC3)c3c(Nc4c(Cl)ccc5c4OCO5)ncnc3c2)CC1 [Saracatinib] (drug 10000 nM)", "viability inhibition at highest dose": 36.6}
{"compound": "COc1cc(CCc2cc(NC(=O)c3ccc(N4CC(C)NC(C)C4)cc3)n[nH]2)cc(OC)c1 (stereo unspecified) [AZD4547] (drug 1000 nM)", "viability inhibition at highest dose": -9.97}
{"compound": "Cc1cc(Nc2nc(N[C@@H](C)c3ncc(F)cn3)ncc2Cl)[nH]n1 [AZD1480] (drug 1000 nM)", "viability inhibition at highest dose": 2.99}
{"compound": "CC(C)c1c(C(=O)Nc2ccccc2)c(-c2ccccc2)c(-c2ccc(F)cc2)n1CC[C@@H](O)C[C@@H](O)CC(=O)O [Atorvastatin] (drug 10000 nM)", "viability inhibition at highest dose": 29.2}
{"compound": "CC(=O)c1c(C)c2cnc(Nc3ccc(N4CCNCC4)cn3)nc2n(C2CCCC2)c1=O (drug 10000 nM)", "viability inhibition at highest dose": 29.5}
{"compound": "COc1cc2c(N3CCN(C(=O)Nc4ccc(OC(C)C)cc4)CC3)ncnc2cc1OCCCN1CCCCC1 [Tandutinib] (drug 1000 nM)", "viability inhibition at highest dose": -4.68}
{"compound": "CS(=O)(=O)N1CCN(Cc2cc3nc(-c4cccc5[nH]ncc45)nc(N4CCOCC4)c3s2)CC1 [Pictilisib (GDC-0941)] (drug 10000 nM)", "viability inhibition at highest dose": 70.6}
{"compound": "C[C@]12C=CC(=O)C=C1CC[C@@H]1[C@@H]2C(=O)C[C@@]2(C)[C@H]1CC[C@]2(O)C(=O)CO [Prednisone] (drug 10000 nM)", "viability inhibition at highest dose": 0.12}
{"compound": "CN(C)CCOc1ccc(/C(=C(/CCCl)c2ccccc2)c2ccccc2)cc1 [Toremifene (citrate)] (drug 10000 nM)", "viability inhibition at highest dose": 45.2}
{"compound": "CN(C)c1nc(N(C)C)nc(N(C)C)n1 [Altretamine] (drug 10000 nM)", "viability inhibition at highest dose": 52.4}
{"compound": "COc1ccc(S(=O)(=O)Nc2cccnc2Nc2ccc(O)cc2)cc1 [ABT-751] (drug 10000 nM)", "viability inhibition at highest dose": 58.6}
{"compound": "C/C(=C\\c1csc(C)n1)[C@@H]1C[C@@H]2O[C@]2(C)CCC[C@H](C)[C@H](O)[C@@H](C)C(=O)C(C)(C)[C@@H](O)CC(=O)N1 [Ixabepilone] (drug 1000 nM)", "viability inhibition at highest dose": 30}
{"compound": "CC(C)Cn1cnc2c(N)nc3ccccc3c21 [Imiquimod] (drug 10000 nM)", "viability inhibition at highest dose": 8.8}
{"compound": "COc1cc2c(Oc3ccc4[nH]c(C)cc4c3F)ncnc2cc1OCCCN1CCCC1 [Cediranib (AZD2171, Recentin)] (drug 1000 nM)", "viability inhibition at highest dose": 2.94}
{"compound": "Cn1c(=O)n(-c2ccc(C(C)(C)C#N)cc2)c2c3cc(-c4cnc5ccccc5c4)ccc3ncc21 [Dactolisib (NVP-BEZ235)] (drug 1000 nM)", "viability inhibition at highest dose": 49.1}
{"compound": "Cc1sc2c(c1C)C(c1ccc(Cl)cc1)=N[C@@H](CC(=O)OC(C)(C)C)c1nnc(C)n1-2 [(+)JQ1] (drug 10000 nM)", "viability inhibition at highest dose": 46.9}
{"compound": "CO[C@H]1C[C@@H]2CC[C@@H](C)[C@@](O)(O2)C(=O)C(=O)N2CCCC[C@H]2C(=O)O[C@H]([C@H](C)C[C@@H]2CC[C@@H](OC(=O)C(C)(CO)CO)[C@H](OC)C2)CC(=O)[C@H](C)/C=C(\\C)[C@@H](O)[C@@H](OC)C(=O)[C@H](C)C[C@H](C)/C=C/C=C/C=C/1C [Temsirolimus] (drug 100 nM)", "viability inhibition at highest dose": 31.8}
{"compound": "Cc1ccc(-c2cc(C(F)(F)F)nn2-c2ccc(S(N)(=O)=O)cc2)cc1 [Celecoxib] (drug 10000 nM)", "viability inhibition at highest dose": 2.27}
{"compound": "Nc1ncn([C@H]2C[C@H](O)[C@@H](CO)O2)c(=O)n1 [Decitabine (Dacogen)] (drug 10000 nM)", "viability inhibition at highest dose": -9.55}
{"compound": "CCN(CC)CCOc1ccc(C(=C(Cl)c2ccccc2)c2ccccc2)cc1 [Clomifene citrate] (drug 10000 nM)", "viability inhibition at highest dose": 40.8}
{"compound": "C[C@@H]1C[C@H]2[C@@H]3CCC4=CC(=O)C=C[C@]4(C)[C@@]3(F)[C@@H](O)C[C@]2(C)[C@@]1(O)C(=O)CO [Dexamethasone (Decadron)] (drug 10000 nM)", "viability inhibition at highest dose": 1.63}

* * *

Entries and their relative IC50 values follow.
# Test system: BT-474
# protocol.summary: relative IC50 (midpoint of fitted logistic curve, plateau may be below 50% inhibition; CellTiter-Glo viability); higher = less potent
# condition.info: 4-OH-tamoxifen in medium 1 µM; 72 h

{"molecule": "Cc1c(C(=O)Nc2ccc(N3C[C@@H](C)O[C@@H](C)C3)nc2)cccc1-c1ccc(OC(F)(F)F)cc1 [Erismodegib (NVP-LDE225)]", "relative IC50": "3.61 µM"}
{"molecule": "CCNC(=O)CCC/C=C\\C[C@@H]1[C@@H](/C=C/[C@@H](O)CCc2ccccc2)[C@H](O)C[C@@H]1O [Bimatoprost]", "relative IC50": "> 5.5 µM"}
{"molecule": "C/C(=C\\c1csc(C)n1)[C@@H]1C[C@@H]2O[C@]2(C)CCC[C@H](C)[C@H](O)[C@@H](C)C(=O)C(C)(C)[C@@H](O)CC(=O)O1 [Patupilone (Epothilone B)]", "relative IC50": "0.00598 µM"}
{"molecule": "Cc1ccc(F)c(NC(=O)Nc2ccc(-c3cccc4[nH]nc(N)c34)cc2)c1 [Linifanib (ABT-869)]", "relative IC50": "> 1 µM"}
{"molecule": "O=P(O)(NCCCl)NCCCl [Ifosfamide mustard]", "relative IC50": "> 10 µM"}

* * *

Entries and their viability inhibition at highest dose values follow.
# Test system: BT-474
# protocol.summary: viability inhibition at highest dose (% inhibition); higher = more growth inhibition
# condition.info: 4-OH-tamoxifen in medium 0 µM; 72 h

{"molecule": "S=P(N1CC1)(N1CC1)N1CC1 [Thio-TEPA] (drug 100000 nM)", "viability inhibition at highest dose": -3.59}
{"molecule": "O=c1[nH]cc(F)c(=O)[nH]1 [Fluorouracil] (drug 10000 nM)", "viability inhibition at highest dose": -7.65}
{"molecule": "CN(C)C[C@@H]1CCn2cc(c3ccccc32)C2=C(C(=O)NC2=O)c2cn(c3ccccc23)CCO1 (drug 10000 nM)", "viability inhibition at highest dose": 76}
{"molecule": "Nc1ncn([C@@H]2O[C@H](CO)[C@@H](O)[C@H]2O)c(=O)n1 [Azacitidine] (drug 10000 nM)", "viability inhibition at highest dose": 11.1}
{"molecule": "CC(C)C[C@H](NC(=O)[C@@H](COC(C)(C)C)NC(=O)[C@H](Cc1ccc(O)cc1)NC(=O)[C@H](CO)NC(=O)[C@H](Cc1c[nH]c2ccccc12)NC(=O)[C@H](Cc1cnc[nH]1)NC(=O)[C@@H]1CCC(=O)N1)C(=O)N[C@@H](CCCNC(=N)N)C(=O)N1CCC[C@H]1C(=O)NNC(N)=O [Goserelin acetate] (drug 10000 nM)", "viability inhibition at highest dose": -9.97}
{"molecule": "CNNCc1ccc(C(=O)NC(C)C)cc1 [Procarbazine] (drug 10000 nM)", "viability inhibition at highest dose": -6.73}
{"molecule": "CC1=C2C[C@H]3[C@@H](CC=C4C[C@@H](O)CC[C@@]43C)[C@@H]2CC[C@]12O[C@@H]1C[C@H](C)CN[C@H]1[C@H]2C [Cyclopamine] (drug 10000 nM)", "viability inhibition at highest dose": -4.32}
{"molecule": "CN(C)/N=N/c1[nH]cnc1C(N)=O [Dacarbazine] (drug 10000 nM)", "viability inhibition at highest dose": -13}
{"molecule": "CNC(=O)c1ccc(N2C(=S)N(c3ccc(C#N)c(C(F)(F)F)c3)C(=O)C2(C)C)cc1F [Enzalutamide (MDV 3100)] (drug 10000 nM)", "viability inhibition at highest dose": -1.06}
{"molecule": "CC(=O)c1c(C)c2cnc(Nc3ccc(N4CCNCC4)cn3)nc2n(C2CCCC2)c1=O (drug 10000 nM)", "viability inhibition at highest dose": 1.33}
{"molecule": "Clc1ccc(C(c2ccccc2Cl)C(Cl)Cl)cc1 (configuration not stated) [Mitotane] (drug 10000 nM)", "viability inhibition at highest dose": -9.37}
{"molecule": "Oc1nc(-c2ccc(C(F)(F)F)cc2)nc2c1CSCC2 [XAV-939] (drug 10000 nM)", "viability inhibition at highest dose": 2.3}
{"molecule": "Nc1nc(F)nc2c1ncn2[C@@H]1O[C@H](CO)[C@@H](O)[C@@H]1O [Fludarabine] (drug 10000 nM)", "viability inhibition at highest dose": -6.6}
{"molecule": "CC[C@@H]1C(=O)OC[C@@H]1Cc1cncn1C [Pilocarpine] (drug 40000 nM)", "viability inhibition at highest dose": -0.744}
{"molecule": "CN1CC[C@H](c2c(O)cc(O)c3c(=O)cc(-c4ccccc4Cl)oc23)[C@H](O)C1 [Alvocidib (Flavopiridol)] (drug 10000 nM)", "viability inhibition at highest dose": 9.07}
{"molecule": "COc1cc([C@@H]2c3cc4c(cc3[C@@H](O[C@@H]3O[C@@H]5CO[C@@H](C)O[C@H]5[C@H](O)[C@H]3O)[C@H]3COC(=O)[C@H]23)OCO4)cc(OC)c1O [Etoposide] (drug 10000 nM)", "viability inhibition at highest dose": -4.44}
{"molecule": "C[C@H]1C[C@@H]2[C@H]([C@@H](O)C[C@@]3(C)[C@H]2CC[C@]3(O)C(=O)CO)[C@@]2(C)C=CC(=O)C=C12 [Methylprednisolone] (drug 10000 nM)", "viability inhibition at highest dose": -7.44}
{"molecule": "C[C@]1(c2nc3c(C(N)=O)cccc3[nH]2)CCCN1 [Veliparib (ABT-888)] (drug 10000 nM)", "viability inhibition at highest dose": -7.48}
{"molecule": "C=CC(=O)N1CCC[C@@H](n2nc(-c3ccc(Oc4ccccc4)cc3)c3c(N)ncnc32)C1 (drug 1000 nM)", "viability inhibition at highest dose": 69.5}
{"molecule": "Cc1cccc(-c2nn3c(c2-c2ccnc4ccc(C(N)=O)cc24)CCC3)n1 (drug 1000 nM)", "viability inhibition at highest dose": -8.01}
{"molecule": "C#Cc1cccc(Nc2ncnc3cc(OC)c(OCCCCCCC(=O)NO)cc23)c1 [CUDC-101] (drug 10000 nM)", "viability inhibition at highest dose": 93.9}
{"molecule": "CO[C@@H]1[C@H](N(C)C(=O)c2ccccc2)C[C@H]2O[C@]1(C)n1c3ccccc3c3c4c(c5c6ccccc6n2c5c31)C(=O)NC4 [Midostaurin (PKC412)] (drug 10000 nM)", "viability inhibition at highest dose": 23.7}
